- experimentNotes: Cytotoxicity against human MT4 cells after 96 hrs by MTT assay
- Assay type: cell-based
Examples of compounds with documented CC50 at 96 h follow.
Give your result in µM as a bare value.

Field: example entries. Status: answers known.
Nc1ccc(-c2nc3cc4cccnc4c(Cl)c3[nH]2)cc1	15
COc1ccccc1-c1nc2cc3cccnc3cc2[nH]1	14
O=c1[nH]c2c(Cl)c3ncccc3cc2nc1-c1ccccc1	61
O=[N+]([O-])c1ccc(-c2nc3cc4cccnc4cc3[nH]2)c2ccccc12	6
CCOC(=O)C(C)c1nc2cc3cccnc3c(Cl)c2[nH]c1=O (configuration not stated)	59

Find the recorded CC50 at 96 h belonging to `c1ccc(-c2nc3cc4cccnc4cc3[nH]2)cc1` and report it.
28

Find the recorded CC50 at 96 h belonging to `Clc1ccc(-c2nc3cc4cccnc4cc3[nH]2)cc1` and report it.
100

Find the recorded CC50 at 96 h belonging to `Clc1c2ncccc2cc2nc(CBr)c(CBr)nc12` and report it.
16
